target: the molecule itself; experiment: SEC; HiPrep Superdex 200 16/600 after Ni-NTA; 0.03% DDM, 50 mM sodium phosphate pH 7.5, 150 mM NaCl; ratio of heptamers to monomers

# protein, binding result
measured = [
    ("MscS YFF A98W (complex, E. coli, UniProt P0C0S1 1-286, looked up) MEDLNVVDSINGAGSYLVANQALLLSYAVNIVAALAIIIVGLIIARMISNAVNRLMISRKIDATVADFLSALVRYGIIAFTLIAALGRVGVQTASVIWVLGAAGLAVGLALQGSLSNLAAGVLLVMFRPFRAGEYVDLGGVAGTVLSVQIFSTTMRTADGKIIVIPNGKIIAGNIINFSREPVRRNEFIIGVAYDSDIDQVKQILTNIIQSEDRILKDREMTVRLNELGASSINFVVRVFSNSGDLQNVYFDVLERIKREFDAAGISFPYPQMDVNFKRVKEDKAA", "binds"),
]

Source of measurements: paper PMC4519979
